Taken from patent US20230348450A1.

# system: human Bisphosphoglycerate mutase (hBPGM) (Homo sapiens (Human), UniProt P07738)
# Sequence (P07738 whole entry): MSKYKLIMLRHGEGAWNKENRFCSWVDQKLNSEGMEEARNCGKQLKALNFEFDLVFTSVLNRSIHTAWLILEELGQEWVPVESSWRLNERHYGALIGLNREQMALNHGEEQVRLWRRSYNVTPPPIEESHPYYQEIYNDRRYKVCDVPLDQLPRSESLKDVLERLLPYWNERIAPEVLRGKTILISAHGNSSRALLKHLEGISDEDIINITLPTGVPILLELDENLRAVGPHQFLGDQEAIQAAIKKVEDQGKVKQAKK
# assay-remarks: BPGM Phosphatase Assay
# experimental-setup: Table 6 additional results; read-out: huBPGM: phosphatase Enzyme EC50
readout: pEC50
// returns pEC50 (minus log10 of molar concentration), number only

Q) State the recorded pEC50 for this entry: Cc1nc(CNC(=O)C2CCNCC2)sc1-c1csc(-c2cc(O)c(C(=O)O)cc2F)n1
A) 6.47

Q) State the recorded pEC50 for this entry: Cc1nc(COc2ccccn2)sc1-c1cccc(-c2cc(O)c(C(=O)O)cc2F)n1
A) 7.15

Q) State the recorded pEC50 for this entry: COC(=O)NCc1nc(C)c(-c2nsc(-c3ccc(C(=O)O)c(O)c3)n2)s1
A) 6.44

Q) State the recorded pEC50 for this entry: Cc1nc(CNC(=O)c2cccnn2)sc1-c1csc(-c2cc(O)c(C(=O)O)cc2F)n1 [Example 171]
A) 7.52

Q) State the recorded pEC50 for this entry: Cc1nc(COc2ncccn2)sc1-c1cccc(-c2ccc(C(=O)O)c(F)c2)n1
A) 8.00

Q) State the recorded pEC50 for this entry: CCOC(=O)NCc1nc(C)c(-c2csc(-c3cc(O)c(C(=O)O)cc3F)n2)s1
A) 7.05

Q) State the recorded pEC50 for this entry: Cc1nc(Cc2ccccc2)sc1-c1cccc(-c2cc(O)c(C(=O)O)cc2F)c1
A) 6.54

Q) State the recorded pEC50 for this entry: Cc1nc(COc2ccccn2)sc1-c1csc(-c2cc(O)c(C(=O)O)cc2F)n1
A) 7.22

Q) State the recorded pEC50 for this entry: Cc1nc(Cc2ccccn2)sc1-c1cccc(-c2ccc(C(=O)O)c(O)c2)c1
A) 6.96

Q) State the recorded pEC50 for this entry: COC(=O)NCc1nc(C)c(-c2csc(-c3ccc(C(=O)O)c(O)c3)n2)s1
A) 6.85

Q) State the recorded pEC50 for this entry: Cc1nc(C)c(-c2csc(-c3ccc(C(=O)O)c(O)c3F)n2)s1
A) 5.60

Q) State the recorded pEC50 for this entry: Cc1nc(Cn2cccn2)sc1-c1cccc(-c2cc(O)c(C(=O)O)cc2F)c1
A) 6.29

Q) State the recorded pEC50 for this entry: Cc1nc(Cn2cccn2)sc1-c1cccc(-c2cc(O)c(C(=O)O)cc2F)n1
A) 6.72

Q) State the recorded pEC50 for this entry: Cc1nc(COc2ncccn2)sc1-c1cccc(-c2csc(C(=O)O)n2)n1
A) 5.06
